# System: SW-620 colon
# assayDetails: NCI-60 one-dose screen, 48 h (100 = growth as untreated, 0 = no growth, -100 = all killed)
# measurementConditions: 10 µM unless noted
This is part of a sample that, as a whole, favours compounds with a hit. Of some 83,000 tested, about 20% had one in any assay.
readoutName: growth (%)
API: value field is a number in %; no unit string.

# example entries with known answers
{"molecule": "O=C(O)CC1CCN(c2ccc3nnc(Cl)n3n2)CC1", "testTarget": "SW-620 colon", "growth, %": 102}
{"molecule": "CCOP(=O)(OCC)OC[C@]12CC[C@@H](C)[C@H](C)C1C1=CC[C@@H]3[C@@]4(C)CCCNC(C)(C)[C@@H]4CC[C@@]3(C)[C@]1(C)CC2 (stereo not given in full)", "testTarget": "SW-620 colon", "growth, %": -54.7}
{"molecule": "O=C(COc1ccc(/C=C2\\C(=O)Nc3ccc(Cl)cc32)cc1)Nc1ccc(Cl)cc1", "testTarget": "SW-620 colon", "growth, %": 45.5}

stdin: Would you mind telling me what growth value was observed for CN1CCN(Cc2ccc(NC(=O)c3cncc(C#Cc4cnc5ccc(NCCO)nn45)c3)cc2C(F)(F)F)CC1 ?
stdout: -13.2

stdin: Would you mind telling me what growth value was observed for Cn1cc(-c2nnc(N)nc2-c2c[nH]c3ccc(F)cc23)c2cc(Br)ccc21 ?
stdout: 20.4

stdin: Would you mind telling me what growth value was observed for O=c1c2ccccc2cc2n1CCN=C2c1ccccc1 ?
stdout: 96

stdin: Would you mind telling me what growth value was observed for C1=CC(c2nn3c(-c4ccccc4)nnc3s2)=Cc2ccccc2O1 ?
stdout: 16.6

====

# Tested on: SF-268 CNS
# assayDetails: NCI-60 one-dose screen, 48 h (100 = growth as untreated, 0 = no growth, -100 = all killed)
# measurementConditions: 10 µM unless noted
This is part of a sample that, as a whole, favours compounds with a hit. Of some 83,000 tested, about 20% had one in any assay.
Response field label takes true when growth is strictly below 90% and false in all other cases.

Solved cases (8 shown):
{"compound": "CCCNNC(=O)c1ccc(-c2ccc(NC(=O)CCCCCCC(=O)N[C@H](C(=O)N3C[C@H](O)C[C@H]3C(=O)N[C@@H](C)c3ccc(-c4scnc4C)cc3)C(C)(C)C)cc2)cc1", "group": "true"}
{"compound": "Cc1ccc2c(n1)C(=O)C(Cl)=C(Nc1ccc(C#N)cc1)C2=O", "group": "false"}
{"compound": "Cc1nc(N)sc1-c1csc(Nc2ccc(C(F)(F)F)cc2)n1", "group": "true"}
{"compound": "C#CCn1cc(/C=N/Nc2nc(-c3ccc(Br)cc3)cs2)c2ccccc21", "group": "false"}
{"compound": "COc1ccc(/C=N/NC(=O)c2c(N)nn(C)c2Nc2ccccc2)cc1Oc1ccccc1", "group": "false"}
{"compound": "N#C/C(=C\\c1ccc(-c2ccc(Cl)c(Cl)c2)o1)C(=O)Nc1ncc(Cc2ccc(Cl)cc2)s1", "group": "true"}
{"compound": "O=C1C(SCc2ccccc2)=C(Cl)CN1c1ccccc1", "group": "false"}
{"compound": "CC1CC(=O)C2=C(C1)Nc1ccc(Br)cc1CC2c1c[nH]c2ccc(Br)cc12 (centres undefined)", "group": "true"}

Pending compound:
stdin: Lab note: growth threshold 90%. Does this compound come in strictly under it? O=C(COc1ccc(/C=C2\C(=O)Nc3ccc(Cl)cc32)cc1)Nc1ccc(Cl)cc1
stdout: true

====

In this section, each of the compounds is paired with its reported growth.
# Test system: NCI-H460 lung
# assayDetails: NCI-60 one-dose screen, 48 h (100 = growth as untreated, 0 = no growth, -100 = all killed)
# measurementConditions: 10 µM unless noted
About 83,000 compounds went through this panel and 20% of them were active in at least one assay; those are over-represented in the sample as a whole.
API: value field is a number in %; no unit string.

# example entries with known answers
{"molecule": "Cn1cc(-c2nn3cc(-c4ccncc4)nc3s2)c2cc(F)ccc21", "growth [%]": 65.8}
{"molecule": "C=C(C)[C@@H]1CC[C@]2(COP(=O)(OCC)OCC)CC[C@]3(C)[C@H](CC[C@@H]4[C@@]5(C)CC[C@H](OP(=O)(OCC)OCC)C(C)(C)[C@@H]5CC[C@]43C)[C@@H]12", "growth [%]": 22.3}
{"molecule": "CCNCCOc1ccc(/C(=C(/CC)c2ccc(Cl)cc2)c2ccc(OCCCN(C)C)cc2)cc1", "growth [%]": -74.2}
{"molecule": "Nc1nc(=O)n([C@H]2C[C@H](O)[C@@H](CO)O2)cc1C=O", "growth [%]": 103}
{"molecule": "CC1=C(C)C(=O)C(Nc2cccc(C(=O)OC(C)(C)C)c2)=C(Cl)C1=O", "growth [%]": 99.8}

stdin: Find the measured growth: item O=c1c2cc(-c3ccc(F)cc3F)ccc2n(O)c(=O)n1-c1cccc(C(F)(F)F)c1 , target or system NCI-H460 lung.
stdout: 6.68

stdin: Find the measured growth: item CC1=C(C)C(=O)C(Nc2cccc(C(=O)OC(C)(C)C)c2)=CC1=O , target or system NCI-H460 lung.
stdout: 93.1

stdin: Find the measured growth: item CNC(=O)c1cc(N2CCc3cc(NC(=O)Nc4ccc(N5CCOCC5)c(C(F)(F)F)c4)ccc32)ccn1 , target or system NCI-H460 lung.
stdout: 9.77

stdin: Find the measured growth: item O=C(CCCCCCNC(=O)C(O)(O)C(F)(F)F)Nc1ccc(Cl)cc1 , target or system NCI-H460 lung.
stdout: 23.3

====

# System: LOX IMVI melanoma
# assayDetails: NCI-60 one-dose screen, 48 h (100 = growth as untreated, 0 = no growth, -100 = all killed)
# measurementConditions: 10 µM unless noted
This is part of a sample that, as a whole, favours compounds with a hit. Of some 83,000 tested, about 20% had one in any assay.
Response field label takes 1 when growth is strictly below 40% and 0 in all other cases.

Solved cases (10 shown):
{"compound": "Cn1cc(-c2nnc(N)nc2-c2c[nH]c3ccc(F)cc23)c2cc(Br)ccc21", "group": 1}
{"compound": "COC(=O)c1ccc(NC2=C(Cl)C(=O)c3nc(C)ccc3C2=O)cc1", "group": 0}
{"compound": "O=C1C(N2CCN(c3ccccc3)CC2)=C(Cl)C(=O)c2ncccc21", "group": 1}
{"compound": "CCOC(=O)c1c(NC(=O)c2cccc(C(F)(F)F)c2)sc2c1CCC(=O)C2", "group": 1}
{"compound": "O=C(/C=C/c1ccc(F)cc1)Nc1cccc2cccnc12", "group": 0}
{"compound": "Cc1nc(/N=C(N)/N=C(\\N)c2cccc(Br)c2)sc1C", "group": 0}
{"compound": "CCN(CC)S(=O)(=O)c1ccc(-c2nc(C(Cl)Cl)nc3cc(C)nn23)cc1", "group": 1}
{"compound": "O=C(CSc1nnc(-c2ccc(Cl)cc2)n1-c1ccccc1)Nc1ccc(Cl)cc1", "group": 1}
{"compound": "CC1=C(C)C(=O)C(Nc2ccc3c(c2)OCO3)=C(Br)C1=O", "group": 0}
{"compound": "COc1cc(/C=C2/C(=O)Nc3ccc(Cl)cc32)ccc1OCc1ccc(Cl)cc1", "group": 0}

stdin: Lab note: growth threshold 40%. Does this compound come in strictly under it? Cn1cc(-c2nn3cc(-c4ccncc4)nc3s2)c2cc(Br)ccc21
stdout: 0

stdin: Lab note: growth threshold 40%. Does this compound come in strictly under it? COc1cccc2c1[C@H](OC)[C@]13O[C@@]1(C2=O)[C@H](O)[C@H](C)[C@@](O)(C(=O)[C@@H]1O[C@H]1C)[C@@H]3O
stdout: 1

stdin: Lab note: growth threshold 40%. Does this compound come in strictly under it? CCN(CC)S(=O)(=O)c1ccc(-c2nc(C(Cl)Cl)nc3cc(-c4ccc(F)cc4)nn23)cc1
stdout: 1

stdin: Lab note: growth threshold 40%. Does this compound come in strictly under it? CN1CCN(c2ccc(Nc3nc(NCCCNS(=O)(=O)c4ccccc4)c4sccc4n3)cc2)CC1
stdout: 1

stdin: Lab note: growth threshold 40%. Does this compound come in strictly under it? O=C(CCCCCCNC(=O)C(O)(O)C(F)(F)F)Nc1ccc(-c2ccccc2)cc1
stdout: 1

stdin: Lab note: growth threshold 40%. Does this compound come in strictly under it? N#C/C(=C\c1ccc(-c2ccc(Cl)cc2)o1)C(=O)Nc1ncc(Cc2ccc(Br)cc2)s1
stdout: 1

====

# Tested on: RPMI-8226 leukemia
# assayDetails: NCI-60 one-dose screen, 48 h (100 = growth as untreated, 0 = no growth, -100 = all killed)
# measurementConditions: 10 µM unless noted
The panel holds about 83,000 compounds, 20% with a hit somewhere; the sample as a whole holds those more often.
Categorize each record by its growth using bucket A: < 20%; bucket B: ≥ 20% and < 50%; bucket C: ≥ 50%

{"molecule": "COc1ccc(/C=N/NC(=O)CSc2nc(-c3cnccn3)cc(-c3cccs3)c2C#N)cc1OC", "group": "bucket C"}
{"molecule": "COc1ccc(N2CCN(C3=C(Cl)C(=O)c4ncccc4C3=O)CC2)cc1", "group": "bucket B"}
{"molecule": "CN(C)S(=O)(=O)c1ccc(-c2nc(C(Cl)Cl)nc3cc(-c4ccc(F)cc4)nn23)cc1", "group": "bucket A"}

stdin: In plain terms, what class is CCC(=C(c1ccc(OCCN(C)C)cc1)c1ccc(OCCN(C)C)cc1)c1ccc(Cl)cc1 ?
stdout: bucket A

stdin: In plain terms, what class is CCOC(=O)c1c(N)c(C#N)cn1Cc1ccc(Cl)cc1Cl ?
stdout: bucket C
